# procedure_text: Single oral dose pharmacokinetic study of eliglustat tartrate in mild or moderate hepatic impairment and matched healthy subjects (Example 1)
# Assay type: in vivo, human
# condition_description: both sexes, human, plasma, oral, 100 mg, CYP2D6 IM, healthy, N=1; single 100 mg eliglustat tartrate oral; plasma; read-out: AUC (extrapolated to infinity)
quantity_kind: AUC(0-inf) (ng·h/mL)
Numbers only, in ng·h/mL.

AUC(0-inf) in this record for CCCCCCCC(=O)N[C@H](CN1CCCC1)[C@H](O)c1ccc2c(c1)OCCO2 : 578

----------
# procedure_text: Phase 1 single dose pharmacokinetic study of eliglustat tartrate in severe renal impairment and matched normal renal function subjects (Example 3)
# Assay type: in vivo, human
# condition_description: both sexes, human, plasma, po, 100 mg, CYP2D6 EM, severe RI, N=7; single oral 100 mg eliglustat tartrate; plasma; read-out: tmax, median
quantity_kind: Tmax (h)
Give bare numbers, in h.

Tmax in this record for CCCCCCCC(=O)N[C@H](CN1CCCC1)[C@H](O)c1ccc2c(c1)OCCO2 [eliglustat] : 4

----------
# procedure_text: Single oral dose pharmacokinetic study of eliglustat tartrate in mild or moderate hepatic impairment and matched healthy subjects (Example 1)
# Type: in vivo, human
# condition_description: both sexes, human, plasma, po, 100 mg, CYP2D6 EM, healthy, N=7; single 100 mg eliglustat tartrate oral; plasma; read-out: AUClast, mean ± SD
# Method: A multi-center, open-label, single oral dose study of eliglustat tartrate administered to mild or moderate HI and normal hepatic function (healthy) matched (by body weight and cytochrome P450 [CYP] 2D6 phenotype) subjects was carried out to study the effect of mild and moderate hepatic impairment (HI) on the pharmacokinetics (PK) of eliglustat. […]
quantity_kind: AUC(0-t) (ng·h/mL)
One number for each entry, in ng·h/mL.

AUC(0-t) in this record for CCCCCCCC(=O)N[C@H](CN1CCCC1)[C@H](O)c1ccc2c(c1)OCCO2 : 63.9

----------
# procedure_text: Phase 1 single dose pharmacokinetic study of eliglustat tartrate in severe renal impairment and matched normal renal function subjects (Example 3)
# Assay type: in vivo, human
# condition_description: human, plasma, oral, 100 mg, CYP2D6 IM, healthy, N=1; single oral 100 mg eliglustat tartrate; plasma; read-out: tmax
quantity_kind: Tmax (h)
Numbers only, in h.

Tmax in this record for CCCCCCCC(=O)N[C@H](CN1CCCC1)[C@H](O)c1ccc2c(c1)OCCO2 : 3

----------
# procedure_text: Phase 1 single dose pharmacokinetic study of eliglustat tartrate in severe renal impairment and matched normal renal function subjects (Example 3)
# Type: in vivo, human
# condition_description: both sexes, human, plasma, po, 100 mg, CYP2D6 EM, healthy, N=7; single oral 100 mg eliglustat tartrate; plasma; read-out: AUClast, mean ± SD
quantity_kind: AUC(0-t) (ng·h/mL)
Answers are plain numbers, in ng·h/mL.

AUC(0-t) in this record for CCCCCCCC(=O)N[C@H](CN1CCCC1)[C@H](O)c1ccc2c(c1)OCCO2 : 112

----------
# procedure_text: Single oral dose pharmacokinetic study of eliglustat tartrate in mild or moderate hepatic impairment and matched healthy subjects (Example 1)
# Format: in vivo, human
# condition_description: both sexes, human, plasma, oral, 100 mg, CYP2D6 IM, mild HI, N=2; single 100 mg eliglustat tartrate oral; plasma; read-out: Vz/F, mean
quantity_kind: Vd/F
Report as: number unit

Vd/F in this record for CCCCCCCC(=O)N[C@H](CN1CCCC1)[C@H](O)c1ccc2c(c1)OCCO2 : 3910 L

----------
# procedure_text: Phase 1 single dose pharmacokinetic study of eliglustat tartrate in severe renal impairment and matched normal renal function subjects (Example 3)
# Assay type: in vivo, human
# condition_description: human, plasma, oral, 100 mg, CYP2D6 IM, healthy, N=1; single oral 100 mg eliglustat tartrate; plasma; read-out: Cmax
quantity_kind: Cmax (ng/mL)
Give bare numbers, in ng/mL.

Cmax in this record for CCCCCCCC(=O)N[C@H](CN1CCCC1)[C@H](O)c1ccc2c(c1)OCCO2 : 54.7

----------
# procedure_text: Single oral dose pharmacokinetic study of eliglustat tartrate in mild or moderate hepatic impairment and matched healthy subjects (Example 1)
# Format: in vivo, human
# condition_description: both sexes, human, plasma, po, 100 mg, CYP2D6 EM, moderate HI, N=7; single 100 mg eliglustat tartrate oral; plasma; read-out: Vz/F, mean ± SD
quantity_kind: Vd/F (L)
Numbers only, in L.

Vd/F in this record for CCCCCCCC(=O)N[C@H](CN1CCCC1)[C@H](O)c1ccc2c(c1)OCCO2 : 5840

----------
# procedure_text: Phase 1 single dose pharmacokinetic study of eliglustat tartrate in severe renal impairment and matched normal renal function subjects (Example 3)
# Format: in vivo, human
# condition_description: human, plasma, oral, 100 mg, CYP2D6 IM, healthy, N=1; single oral 100 mg eliglustat tartrate; plasma; read-out: AUClast
quantity_kind: AUC(0-t) (ng·h/mL)
Answers are plain numbers, in ng·h/mL.

AUC(0-t) in this record for CCCCCCCC(=O)N[C@H](CN1CCCC1)[C@H](O)c1ccc2c(c1)OCCO2 : 520

----------
# procedure_text: Single oral dose pharmacokinetic study of eliglustat tartrate in mild or moderate hepatic impairment and matched healthy subjects (Example 1)
# Type: in vivo, human
# condition_description: both sexes, human, plasma, po, 100 mg, CYP2D6 EM, moderate HI, N=7; single 100 mg eliglustat tartrate oral; plasma; read-out: AUClast, geometric mean
quantity_kind: AUC(0-t) (ng·h/mL)
One number for each entry, in ng·h/mL.

AUC(0-t) in this record for CCCCCCCC(=O)N[C@H](CN1CCCC1)[C@H](O)c1ccc2c(c1)OCCO2 : 293

----------
# procedure_text: Single oral dose pharmacokinetic study of eliglustat tartrate in mild or moderate hepatic impairment and matched healthy subjects (Example 1)
# Type: in vivo, human
# condition_description: both sexes, human, plasma, po, 100 mg, CYP2D6 EM, moderate HI, N=7; single 100 mg eliglustat tartrate oral; plasma; read-out: Cmax, mean ± SD
quantity_kind: Cmax (ng/mL)
Give bare numbers, in ng/mL.

Cmax in this record for CCCCCCCC(=O)N[C@H](CN1CCCC1)[C@H](O)c1ccc2c(c1)OCCO2 : 39.5

----------
# procedure_text: Single oral dose pharmacokinetic study of eliglustat tartrate in mild or moderate hepatic impairment and matched healthy subjects (Example 1)
# Format: in vivo, human
# condition_description: both sexes, human, plasma, po, 100 mg, CYP2D6 EM, mild HI, N=6; single 100 mg eliglustat tartrate oral; plasma; read-out: AUC (extrapolated to infinity), mean ± SD
quantity_kind: AUC(0-inf)
Report as: number unit

AUC(0-inf) in this record for CCCCCCCC(=O)N[C@H](CN1CCCC1)[C@H](O)c1ccc2c(c1)OCCO2 : 172 ng·h/mL

----------
# procedure_text: Single oral dose pharmacokinetic study of eliglustat tartrate in mild or moderate hepatic impairment and matched healthy subjects (Example 1)
# Assay type: in vivo, human
# condition_description: both sexes, human, plasma, oral, 100 mg, CYP2D6 IM, mild HI, N=2; single 100 mg eliglustat tartrate oral; plasma; read-out: tmax
quantity_kind: Tmax (h)
One number for each entry, in h.

Tmax in this record for CCCCCCCC(=O)N[C@H](CN1CCCC1)[C@H](O)c1ccc2c(c1)OCCO2 : 2

----------
# procedure_text: Single oral dose pharmacokinetic study of eliglustat tartrate in mild or moderate hepatic impairment and matched healthy subjects (Example 1)
# Assay type: in vivo, human
# condition_description: both sexes, human, plasma, po, 100 mg, CYP2D6 EM, healthy, N=7; single 100 mg eliglustat tartrate oral; plasma; read-out: AUClast, geometric mean
quantity_kind: AUC(0-t)
Report as: number unit

AUC(0-t) in this record for CCCCCCCC(=O)N[C@H](CN1CCCC1)[C@H](O)c1ccc2c(c1)OCCO2 : 54.7 ng·h/mL

----------
# procedure_text: Single oral dose pharmacokinetic study of eliglustat tartrate in mild or moderate hepatic impairment and matched healthy subjects (Example 1)
# Type: in vivo, human
# condition_description: human, plasma, oral, 100 mg, CYP2D6 IM, moderate HI, N=1; single 100 mg eliglustat tartrate oral; plasma; read-out: Vz/F
quantity_kind: Vd/F (L)
Give bare numbers, in L.

Vd/F in this record for CCCCCCCC(=O)N[C@H](CN1CCCC1)[C@H](O)c1ccc2c(c1)OCCO2 : 3430

----------
# procedure_text: Single oral dose pharmacokinetic study of eliglustat tartrate in mild or moderate hepatic impairment and matched healthy subjects (Example 1)
# Format: in vivo, human
# condition_description: human, plasma, oral, 100 mg, CYP2D6 IM, healthy, N=1; single 100 mg eliglustat tartrate oral; plasma; read-out: Vz/F
# Method: A multi-center, open-label, single oral dose study of eliglustat tartrate administered to mild or moderate HI and normal hepatic function (healthy) matched (by body weight and cytochrome P450 [CYP] 2D6 phenotype) subjects was carried out to study the effect of mild and moderate hepatic impairment (HI) on the pharmacokinetics (PK) of eliglustat. […]
quantity_kind: Vd/F (L)
Numbers only, in L.

Vd/F in this record for CCCCCCCC(=O)N[C@H](CN1CCCC1)[C@H](O)c1ccc2c(c1)OCCO2 [eliglustat] : 1790
